Source: the supplement of paper PMC10567573

Readings of protein stability index for the listed variants
B1: ZNF511 (parent)
chain: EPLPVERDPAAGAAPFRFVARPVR

Variants of: B1
Assay: protein stability index of a GFP-peptide fusion (GPS, HEK-293T) (PSI 1-6); higher = more stable;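 note: lentivirally expressed fusions sorted by FACS into six bins by GFP to DsRed ratio, PSI derived from sequencing read proportions per bin multiplied by bin number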
Settings: c terminus: a fixed tail appended
MEASUREMENT TYPE: protein stability index

1) P2G 2.75
2) R7G 2.1
3) R21Y 1.76
4) G12I 1.46
5) P15A 3.76
6) F18D 4.97
7) D8R 2.21
8) L3G 2.23
9) A10F 1.64
10) P9M 2.73
11) F18M 4.6
12) A13D 3.26
13) A10M 2.11
14) F18N 4.99
15) R24I 2.33
16) A11E 3
17) P2V 2.03
18) P15I 3.22
19) F18P 5.01
20) V23C 3.19
21) R17M 3.88
22) E6H 2.44
23) A13K 2.71
